Origin of measurements: PubChem BioAssay AID652142

Experimental System: Rac GTPase-activating protein 1 (Homo sapiens)
Assay Procedure: inhibition of MgcRacGAP-stimulated Rac1 GTP hydrolysis – biochemical, inorganic phosphate detection, orthogonal assay, confirmation (AID 652142)
Experimental Context: MgcRacGAP/Rac1F28L GTP hydrolysis, Biomol green phosphate; stronger effect = higher value
Among all 2,400 compounds or so, fewer than 10 were called active. Only a sample is shown.
Reported Property: inhibition (%)
Response body: numeric value in %, unit text excluded.

inhibition reported for this molecule Cc1c(C(=O)N/N=C/c2ccc(O)c(Br)c2)sc(N)c1C#N : 31.3

Data point: Oc1ccc(/C=N/n2c(-c3ccco3)csc2=Nc2cccnc2)c(O)c1 ; inhibition = 23.8

Memo: CCOC(=O)c1nc(Nc2ccc(Nc3ccccc3)cc2)c2ccccc2n1 , reported inhibition: 32

Sample Oc1ccc(-c2csc(-c3cccnc3)n2)c(O)c1 ; inhibition observed: 14.8

Entry Cc1ccc(/C(N)=N/OC(=O)N2c3ccccc3Sc3ccccc32)cc1 — recorded inhibition = 23.7

What the record says about COc1ccccc1C(=O)N1CCN(Cc2cccnc2)CC1 : inhibition is 19.7

Lookup result for CCCS(=O)(=O)N1CCN(CC2CC3C=CC2C3)CC1 (stereo unspecified) ; measured inhibition: 10.6

The molecule CC(C)N=c1scc(-c2ccco2)n1/N=C/c1ccc(O)c(O)c1 showed inhibition equal to 27.8

inhibition measured on CCc1nc(Nc2ccc(O)cc2)c2oc3ccccc3c2n1 = 27.8

# molecule Oc1ccc(/C=N\Nc2cc(N3CCOCC3)nc(N3CCOCC3)n2)c(O)c1 ; its inhibition = 21.8

Summary for this molecule, C/C(=N\NC(=O)c1cccc(N/N=C(\C)c2cc(O)ccc2O)c1)c1cc(O)ccc1O : inhibition is 28.1

The value of inhibition measured for the molecule COc1cc2[nH]c(=S)nc(NCCc3ccc(S(N)(=O)=O)cc3)c2cc1OC turned out to be 17.7

Value of measured inhibition for the entry CC1(C)OC(=O)C(=NNc2ccc(O)cc2)C(=O)O1 : 20.7

# inhibition (molecule: Cn1c(-c2ccc3c(c2)OCO3)cnc1NCc1ccccc1Cl ) is 27.7

Item: OCC1CCCN(C(=S)Nc2ccc(Nc3ccccc3)cc2)C1 (stereo unspecified) | inhibition: 34.4

molecule CCN1CCN(CCOc2ccc(Br)cc2C)CC1 , inhibition observed: 23.2

Reported inhibition for O=c1c2ccccc2sn1-c1ccc(Cl)cc1Cl was 79.5

Documented inhibition of CC(C(=O)NCC(=O)Nc1ccc(F)c(F)c1F)N1CCN(c2ccc(O)cc2)CC1 (stereo unspecified) : 20.8

Field inhibition (entry C#CCOCCOCCOCCNc1nc(N2CCN(C(=O)[C@H](CCCCN)n3cc([C@@H](N)C(C)CC)nn3)CC2)nc(N2CCN(C(=O)[C@H](Cc3cc4ccccc4[nH]3)n3cc([C@@H](N)C(C)CC)nn3)CC2)n1 (stereo partly specified) ) reads 54.2

Given item Oc1ccc(/C=N/Nc2cc(N3CCOCC3)nc(N3CCOCC3)n2)cc1O , the value recorded as its inhibition is 7.37

The reported inhibition of the molecule Cc1ccc(Nc2n[nH]c(=S)s2)cc1 was 23.2

The molecule identified as COc1ccc(N=C2NC(=O)/C(=C/c3ccc(O)c(OC)c3)S2)cc1 registered its inhibition at 19.7

response.value for O=C1/C(=C\c2ccc(O)cc2)SC(=S)N1/N=C/c1ccc(O)cc1 (field: inhibition) = 13.5

Record CC[n+]1ccc(/C=C/c2ccc(N(C)C)cc2)c2ccccc21 , field inhibition: 31.5

Entry CCOc1ccc(/C=N/NC(=O)NC23CC4CC(CC(C4)C2)C3)cc1O — recorded inhibition = 17.5

The molecule listed as Oc1ccc(N=Nc2ccccc2)cc1 has a reported inhibition of 8.73

The molecule COc1cc(/C=N/NC(=O)CCn2c3ccccc3c3ccccc32)ccc1O showed inhibition equal to 21

The recorded inhibition for Oc1ccc(-c2[nH]ncc2-c2ccc(Cl)cc2)c(O)c1 is 26.7

The molecule identified as COc1ccc(Oc2c(-c3ccc(O)cc3O)n[nH]c2C)cc1 registered its inhibition at 9.67

The reported inhibition of the molecule Cc1cc(C)c2nc(C)cc(N/N=C/c3ccc(O)cc3)c2c1 was 41.9

inhibition measured on COc1cc(/C=C2\SC(=Nc3c(C)n(C)n(-c4ccccc4)c3=O)NC2=O)ccc1O = 22.8

Looking up CCOC(=O)/C(C#N)=C\c1c(OCC)n(CC)c2ccccc12 , I see its inhibition listed as 19.7

Query COc1cc2c(cc1OC)C1(CCCC1)C(N)=C2C#N yields inhibition of 18.7

Reported inhibition ( CC(C)(C)N1C(=O)c2ccc(C(=O)Nc3ccc(O)cc3)cc2C1=O ) = 24.3

Notebook: Oc1ccc(NC(=S)N=Nc2c(O)[nH]c3ccc(Br)cc23)cc1 , inhibition read as 26.7

# molecule COc1cc(/C=N/NC(=O)c2cccc(NC(=O)c3ccccc3C)c2)ccc1O ; its inhibition = 19.3

Value of measured inhibition for the entry Cc1cc(-c2ccccc2)nc(N/N=C/c2ccc(N(C)C)cc2)n1 : 23.8

The molecule listed as CCn1c(=O)c(C(=O)CN(C)Cc2cccc(OC)c2OC)c(N)n(Cc2ccccc2)c1=O has a reported inhibition of 35.9

Entry CCn1c(=S)[nH]c2sc3c(c2c1=O)CCCC3 — recorded inhibition = 10.8

So, CCOc1cc(/C=N/NC(=O)Nc2ccccc2)ccc1O ? Its inhibition was 23.6

The reported inhibition of the molecule Oc1ccc(/C=N/Nc2ccnc3cc(Cl)ccc23)cc1O was 4.55

Lab note: measured inhibition of CN(C)CCCN1c2ccc(O)cc2Sc2ccc(Cl)cc21 was 30.1

For reference, reported inhibition for COc1cc(-c2nc3ccc(C)cn3c2Nc2ccc3c(c2)OCCO3)ccc1O stands at 21.3

Please fill in: inhibition reported for CCOC(=O)c1[nH]c2ccccc2c1NC(=S)Nc1cccc(C)c1C = 18.1

Note to self: inhibition recorded for CN(C)c1ccc2c(c1)C(=NO)c1ccccc1-2 was 19.4

Documented inhibition of COc1cccc(Nc2nc(-c3ccc(O)cc3)cs2)c1 : 31.8

====

Experimental System: Rac GTPase-activating protein 1 (Homo sapiens) (UniProt Q9H0H5)
Sequence (Q9H0H5 whole entry, looked up): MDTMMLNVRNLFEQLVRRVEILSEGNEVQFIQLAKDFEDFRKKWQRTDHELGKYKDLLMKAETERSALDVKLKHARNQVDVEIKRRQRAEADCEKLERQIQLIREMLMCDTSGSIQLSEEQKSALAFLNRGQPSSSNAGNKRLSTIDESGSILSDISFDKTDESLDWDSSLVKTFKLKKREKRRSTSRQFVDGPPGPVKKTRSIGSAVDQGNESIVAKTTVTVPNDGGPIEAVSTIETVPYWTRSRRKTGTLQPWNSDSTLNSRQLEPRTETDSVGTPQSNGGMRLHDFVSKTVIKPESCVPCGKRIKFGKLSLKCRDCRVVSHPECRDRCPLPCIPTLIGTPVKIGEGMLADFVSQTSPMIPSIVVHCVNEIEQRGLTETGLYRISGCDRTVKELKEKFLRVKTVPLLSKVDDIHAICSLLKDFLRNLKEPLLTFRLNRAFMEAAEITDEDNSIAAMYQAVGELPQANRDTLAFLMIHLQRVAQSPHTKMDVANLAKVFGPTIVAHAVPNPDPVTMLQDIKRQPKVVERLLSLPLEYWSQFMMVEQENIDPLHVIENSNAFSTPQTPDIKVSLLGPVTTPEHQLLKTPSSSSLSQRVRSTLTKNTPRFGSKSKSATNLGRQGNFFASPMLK
Assay Procedure: inhibition of MgcRacGAP-stimulated Rac1 GTP hydrolysis – biochemical, inorganic phosphate detection, orthogonal assay, confirmation (AID 652142)
Experimental Context: MgcRacGAP/Rac1F28L GTP hydrolysis, Biomol green phosphate; stronger effect = higher value
The whole screen tested about 2,400 compounds, of which fewer than 10 were called active. These entries were drawn from the full list.
Please note: TRUE applies when inhibition is 20% or greater, and FALSE applies otherwise.

Q: Does inhibition meet or surpass 20% for COc1cc(CCNC2=CC(=O)c3ncccc3C2=O)ccc1O ?
Ans: TRUE

Q: Decide: is the reported value of inhibition for C[C@H]1CCC/C=C/[C@@H]2C[C@H](O)C[C@H]2[C@H](O)[C@H](S(=O)c2ccc(O)cc2)CC(=O)O1 (some centres undefined) equal to or greater than 20%?
Ans: TRUE

Q: Reported inhibition at or above 20%? Cc1c(O)ccc(/C(Cc2ccc3ccccc3n2)=N\O)c1O
Ans: TRUE

Q: Please indicate if the recorded inhibition for CCN(CC)c1ccc(C(=C2C=CC(=[N+](CC)CC)C=C2)c2ccc(N(CC)CC)cc2)cc1 meets or exceeds 20%.
Ans: TRUE

Q: Can COc1cc(C=NNC(=O)c2ccccc2-n2cccc2)ccc1O be said to have inhibition at or above 20%?
Ans: TRUE

Q: Please tell me: is the molecule Nc1ccc(-c2nc3ccc(N)cc3s2)cc1 at or over 20% in terms of inhibition?
Ans: TRUE

Q: Given Cc1cc(SCC(=O)c2ccc(O)c(O)c2)nc2ccccc12 , state whether its inhibition is at least 20%.
Ans: FALSE

Q: Threshold query (inhibition >= 20%) on CCOC(=O)C1=C(COC(=O)/C=C/c2ccc(O)c(OC)c2)NC(=O)NC1C (centres undefined)
Ans: FALSE

Q: Evaluate CCOC(=O)C1=C(C)Nc2ccccc2S1 : inhibition at minimum 20%?
Ans: TRUE

Q: Assess whether reported inhibition for CCN(CC)c1ccc(C(=C2C=CC(=[N+](CC)CC)C=C2)c2ccccc2)cc1 sits at 20% or higher.
Ans: TRUE

Q: API: above_or_equal(metric=inhibition, cutoff=20%) for item Cc1ccccc1C(OCC(O)CN1CCN(CCO)CC1)c1ccccc1 (centres undefined)
Ans: TRUE

Q: Decide: inhibition of COc1cc(/C=N/Nc2nn3cnnc3c3ccccc23)ccc1O >= 20%?
Ans: TRUE

Q: Answer whether inhibition of COc1cc(/C=C2\SC(=S)N(Nc3ccccc3)C2=O)ccc1O is greater than or equal to 20%.
Ans: FALSE

====

Would you mind telling me the reported inhibition of each entry?
Experimental System: Rac GTPase-activating protein 1 (Homo sapiens) (UniProt Q9H0H5)
Assay Procedure: inhibition of MgcRacGAP-stimulated Rac1 GTP hydrolysis – biochemical, inorganic phosphate detection, orthogonal assay, confirmation (AID 652142)
Experimental Context: MgcRacGAP/Rac1F28L GTP hydrolysis, Biomol green phosphate; stronger effect = higher value
In all, about 2,400 compounds went through this assay and fewer than 10 were called active. Only a sample is shown.
API: value field is a number in %; no unit string.

Note to self: inhibition recorded for COc1cc(/C=N/NC(=O)C2(O)c3ccccc3-c3ccccc32)ccc1O was 25.6

inhibition reported for this molecule COCCCNC1=C(C#N)C(=O)NC(c2cccs2)S1 (stereo unspecified) : 40.4

Notebook: COc1ccc(C(CNC(=O)c2cc3ccccc3cc2O)N2CCOCC2)cc1 (stereo unspecified) , inhibition read as 18

Memo: CN1CCN(/N=C/c2nc(-c3ccccc3)n3ccccc23)CC1 , reported inhibition: 30.1

The recorded inhibition for entry COc1ccccc1N=NNc1ccccc1OC equals 28.7

Memo: Cc1ccc(S(=O)(=O)c2cc(Nc3ccccc3)ccc2O)cc1 , reported inhibition: 11.6

Briefly, inhibition measured for O=C(CN1CCN(c2ccc(O)cc2)CC1)NCC(=O)Nc1ccc(F)c(F)c1F : 24.8

For COC(=O)c1ccc(NC(=S)Nc2ccc(O)cc2)cc1 the molecule record lists inhibition as 34.6

Per the records, this molecule ( Cc1nc(N)sc1-c1ccccc1 ) has inhibition equal to 20.1

Record CCc1cc(-c2n[nH]c(CCC(=O)O)c2-c2nc3ccccc3n2C)c(O)cc1O , field inhibition: 30.8

Given item CN1C(=O)NC(c2ccc(O)cc2)C2=C1CN(c1ccc(O)cc1)C2=O (stereo unspecified) , the value recorded as its inhibition is 24.1
